Measured activity, listed per entry.
- SUBJECT OF TEST: Catechol O-methyltransferase (Homo sapiens) (UniProt P21964)
- Sequence (P21964 whole entry, looked up): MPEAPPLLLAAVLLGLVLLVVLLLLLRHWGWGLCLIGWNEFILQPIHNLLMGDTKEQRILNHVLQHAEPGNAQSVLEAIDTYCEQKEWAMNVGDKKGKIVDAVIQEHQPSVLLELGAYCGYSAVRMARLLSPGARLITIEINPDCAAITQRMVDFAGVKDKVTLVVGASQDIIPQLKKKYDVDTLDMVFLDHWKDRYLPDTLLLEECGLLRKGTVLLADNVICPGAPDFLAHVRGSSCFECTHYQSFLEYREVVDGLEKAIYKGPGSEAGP
- PROTOCOL NOTES: Confirmatory Screen for Target Class Profiling of Small Molecule Inhibitors of Methyltransferases (AID 1745852)
- ASSAY CONDITIONS: MTase-Glo luminescence, SAH detection, recombinant enzyme; measured here: COMT max response; stronger effect = lower value
MEASUREMENT NAME: activity (%)

> print(dat)
                                   molecule  test.result
1  N#C/C(=C\c1ccc(O)c(O)c1)C(=O)NCCc1ccccc1         85.9
2       NCC(O)C1CCCCCCC1 (stereo not drawn)        -3.91
3  C[C@@]1(C2CCCC2)Cc2cc(OCC(=O)O)c(Cl)c(Cl)c2C1=O         5.42
4  N#C/C(=C\c1ccc(O)c(O)c1)C(=O)NCCCNC(=O)/C(C#N)=C/c1ccc(O)c(O)c1        -50.9
5                 O=C(O)/C=C/c1ccc(O)c(O)c1          150
6     Fc1ccc(CN(C2=NCCN2)c2c(Cl)cccc2Cl)cc1        -2.41
7  Oc1cc(O)c2c(c1)O[C@H](c1ccc(O)c(O)c1)[C@@H](O)C2          171
8  CCN(CC)CCCCCCCCOC(=O)c1cc(OC)c(OC)c(OC)c1         8.45

###

- PROTOCOL NOTES: Quantitative high throughput screen for delayed death inhibitors of the malarial parasite plastid, 96 hour incubation (AID 488745); also: nearly all actives have a fitted effect of over 70% in size
- ASSAY CONDITIONS: Plasmodium falciparum growth; series mostly up to 28.7 µM
Inconclusive results are not listed. Activity calls are given as the source filed them. The call rests on the fitted dose curve; in most records, active means well fitted inhibition curve with a large enough effect; inconclusive means small, poorly fitted or top-dose-only effect, or effect the other way; inactive means no such curve, though single readings can be large or run the other way.
Labels: 1 (yes) = active, 0 (no) = inactive

> print(dat)
                                    molecule  assigned.category
 1                                     [Li+]             0 (no)
 2  Cc1cccc(C2CN(C)CCc3c2cc(O)c(O)c3Cl)c1 (stereo unspecified)            1 (yes)
 3  O=c1ccn([C@@H]2O[C@H](COP(=O)(O)OP(=O)(O)O)[C@@H](O)[C@H]2O)c(=O)[nH]1             0 (no)
 4  CCOC(=O)C12CC1/C(=N/O)c1ccccc1O2 (stereo unspecified)             0 (no)
 5  Oc1cc2c(cc1O)C(c1ccccc1)CNCC2 (stereo unspecified)             0 (no)
 6                    O=c1[nH]ccc2c(O)cccc12             0 (no)
 7            CCn1c(=O)[nH]c2cc(Cl)c(Cl)cc21             0 (no)
 8  CC(C)C[C@H](NC(=O)C1OC1C(=O)O)C(=O)NCCCCN=C(N)N (stereo partly specified)            1 (yes)
 9  CC1=C(C(=O)O)N2C(=O)[C@@H](NC(=O)C(N)C3=CCC=CC3)[C@H]2SC1 (stereo partly specified)             0 (no)
10                  N[C@@H](CCCC(=O)O)C(=O)O             0 (no)
11  COc1ccc2c(c1)c(CC(=O)O)c(C)n2Cc1ccc(Cl)cc1            1 (yes)
12              CNCCNS(=O)(=O)c1cccc2cnccc12             0 (no)
13  Cn1cc(C(=O)OCC2CCN(CCNS(C)(=O)=O)CC2)c2ccccc21             0 (no)
14                     O=C(O)/C=C/c1cnc[nH]1             0 (no)
15  CC(=O)N[C@@H](Cc1c[nH]c2ccccc12)C(=O)OCc1cc(C(F)(F)F)cc(C(F)(F)F)c1             0 (no)
16                           O=C(O)C1=CCNCC1             0 (no)
17  C=CC1(C)CC(=O)C2(O)C(C)(O1)C(OC(C)=O)C(O)C1C(C)(C)CCC(O)C12C (stereo unspecified)             0 (no)
18  CC1CNCCN1S(=O)(=O)c1cccc2cnccc12 (stereo unspecified)             0 (no)
19     CCCCCCCCCCC/C=C\C(C)(C)/C=C\CCCC(=O)O             0 (no)
20              O=C(O)[C@H]1NCCC[C@H]1C(=O)O             0 (no)
21  COc1ccccc1N1CCN(CCCNc2c(C)c(=O)n(C)c(=O)n2C)CC1            1 (yes)
22  O=C(O)C1CN(CCCP(=O)(O)O)CCN1 (stereo unspecified)             0 (no)
23                                  Cn1ccnc1             0 (no)
24              O=[N+]([O-])c1cccc2cn[nH]c12             0 (no)
25                            N=C(N)c1ccccc1             0 (no)
26  CN(C)S(=O)(=O)c1ccc2c(c1)/C(=C/c1cc3c([nH]1)CCCC3)C(=O)N2            1 (yes)
27                 CSC(N)=NCCC[C@H](N)C(=O)O             0 (no)
28  Cc1nc(N=Nc2ccc(C(=O)O)cc2)c(COP(=O)(O)O)c(C=O)c1O             0 (no)
29  NCC(O)(CS(=O)(=O)O)c1ccc(Cl)cc1 (stereo unspecified)             0 (no)
30                 NC(N)=NC(N)=Nc1cccc(Cl)c1            1 (yes)
31  C=CCn1c(=O)c2c(nc(-c3ccc(S(=O)(=O)O)cc3)n2C)n(C)c1=O             0 (no)
